Source listed as patent US8981111B2.

experiment: log P (HPLC/MS data of the preparation examples); details: HPLC (LC-MS) method [b]: pH 2.7, 0.1% formic acid in water and acetonitrile, linear gradient 10% to 95% acetonitrile; EEC directive 79/831 Annex V.A8
value.type: log p

Recorded results for 6 compounds are shown here.
# compound, log p
measured = [
    ("CCCCCCC(=O)Nc1nc(CON=C(c2cccs2)c2cncn2C)cs1", "2.14^[b]"),
    ("CC(C)C(=O)Nc1nc(CON=C(c2cccs2)c2cncn2C)cs1", "1.53^[b]"),
    ("Cn1cncc1C(=NOCc1cccc(N)n1)c1cccs1", "0.08^[b]"),
    ("CCCCCCCCCC(=O)Nc1cccc(CON=C(c2ccsc2)c2cncn2C)n1", "3.02^[b]"),
    ("CCCCC(=O)Nc1nc(CON=C(c2cccs2)c2cncn2C)cs1", "1.7^[b]"),
    ("CCCC(=O)Nc1cccc(CON=C(c2cccs2)c2cncn2C)n1", "1.5^[b]"),
]

The recorded log p for `CCCCCOC(=O)Nc1nc(CON=C(c2cc(C(F)(F)F)ccn2)c2ncccc2C)cs1` is 4.13^[b]

The recorded log p for `Cc1cccnc1C(=NOCc1csc(NC(=O)CC(C)C)n1)c1cc(C(F)(F)F)ccn1` is 3.31^[b]

====

test: log P (HPLC/MS data of the preparation examples); conditions: method [b]: LC-MS at pH 2.7, 0.1% formic acid in water / acetonitrile, linear gradient 10% to 95% acetonitrile
Measured log p, listed per entry.

Recorded results for 6 compounds are shown here.
# compound, result
data = [
    ("Cn1cnnc1C(=NOCc1cccc(NC(=O)CC(F)(F)F)n1)c1ccccc1", "2.28^[b]"),
    ("CCCCCOC(=O)Nc1cccc(CON=C(c2ccccc2)c2nc(C(F)(F)F)nn2C)n1", "5.2^[b]"),
    ("Cn1ccnc1C(=NOCc1nccc(NC(=O)C2CC2)n1)c1ccccc1", "1.5^[b]"),
    ("Cn1nc(C(=NOCc2cccc(NC(=O)C(C)(C)C)n2)c2ccccc2)n(C)c1=O", "2.86^[b]"),
    ("Cn1nc(C(F)(F)F)nc1C(=NOCc1cccc(N2C(=O)c3ccccc3C2=O)n1)c1ccccc1", "3.99^[b]"),
    ("CCCCCC(=O)Nc1cccc(CON=C(c2ccccc2)c2snnc2C)n1", "4.46^[b]"),
]

The recorded log p for `Cn1c(C(=NOCc2cccc(NC(=O)Cc3ccccc3)n2)c2ccccc2)nnc1C(F)(F)F` is 3.6^[b]

====

experiment: log P (HPLC/MS data of the preparation examples); details: LC-MS, method [b]: pH 2.7 with 0.1% formic acid in water and acetonitrile, linear gradient 10% to 95% acetonitrile
Measured log p, listed per entry.

Recorded results for 5 compounds are shown here.
# compound, result
measured = [
    ("CCCCCCC(=O)Nc1cccc(CON=C(c2ccccc2)c2nc(C)cnc2C)n1 [Example 380]", "4.54^[b]"),
    ("COc1cccc(CCC(=O)Nc2cccc(CON=C(c3ccccc3)c3ncnn3C)n2)c1 [Example 298]", "3.25^[b]"),
    ("CC(C)CC(=O)Nc1nc(CON=C(c2cccs2)c2ncnn2C)cs1 [Example 404]", "2.73^[b]"),
    ("Cc1cccc(C(=NOCc2cccc(NC(=O)Cc3ccccc3)n2)c2ncnn2C)c1 [Example 31]", "3.35^[b]"),
    ("COc1ccccc1CCC(=O)Nc1cccc(CON=C(c2ccccc2)c2ncnn2C)n1 [Example 299]", "3.44^[b]"),
]

The recorded log p for CCCCCOC(=O)Nc1cccc(CON=C(c2ccc(OC)c(Br)c2)c2ncc(C(F)(F)F)cc2Cl)n1 [Example 363] is 6.13^[b]

The recorded log p for Nc1nc(CON=C(c2ccsc2)c2snc(Cl)c2Cl)cs1 [Example 383] is 2.51^[b]

The recorded log p for COc1ccc(C(=NOCc2cccc(NC(=O)C(F)(F)F)n2)c2ncc(C(F)(F)F)cc2Cl)cc1Br [Example 361] is 4.97^[b]
